Listed next: entries and their corresponding kon.
Molecular target: T1, Cynomolgus monkey CD98 ECD with C-terminal His-tag (cynomolgus monkey, UniProt P08195 105-529 (human entry))
T1 construct: The entry includes the linker and the polyhistidine tag; also called cyCD98 ECD
T1 chain: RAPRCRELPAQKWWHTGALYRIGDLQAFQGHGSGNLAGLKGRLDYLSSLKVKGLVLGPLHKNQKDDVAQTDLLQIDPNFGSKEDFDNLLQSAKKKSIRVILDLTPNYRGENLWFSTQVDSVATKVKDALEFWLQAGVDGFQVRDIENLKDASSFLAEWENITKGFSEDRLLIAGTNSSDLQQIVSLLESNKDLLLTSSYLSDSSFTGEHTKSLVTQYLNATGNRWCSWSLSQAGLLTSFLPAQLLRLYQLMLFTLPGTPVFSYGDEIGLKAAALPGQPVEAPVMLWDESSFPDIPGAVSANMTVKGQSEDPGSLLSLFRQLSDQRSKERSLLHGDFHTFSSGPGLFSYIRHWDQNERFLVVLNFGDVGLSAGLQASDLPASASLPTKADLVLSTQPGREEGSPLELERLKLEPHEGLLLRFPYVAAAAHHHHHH
Test: SPR (Biacore), antibody captured on anti-Fc surface, CD98 ECD in solution

[
  {
    "binder": "huAb15v6 (antibody, V domains shown, Humanized, further engineered clone of chAb15, converted to IgG and expressed as a full-length antibody) VH: EVQLVESGGGVVQPGRSLRLSCAASGFTFSDYTMAWVRQAPGKGLEWVATIIYDARGTYYRDAVKGRFTISRDNSKSTLYLQMNSLRAEDTAVYYCARQSDDTYYYWGYFDYWGQGTMVTVSS VL: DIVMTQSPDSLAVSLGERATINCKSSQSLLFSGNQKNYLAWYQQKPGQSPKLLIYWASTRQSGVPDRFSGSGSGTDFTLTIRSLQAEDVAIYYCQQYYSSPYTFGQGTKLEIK",
    "kon": "14000 M⁻¹ s⁻¹"
  },
  {
    "binder": "huAb15v7 (antibody, V domains shown, Humanized, further engineered clone of chAb15, converted to IgG and expressed as a full-length antibody) VH: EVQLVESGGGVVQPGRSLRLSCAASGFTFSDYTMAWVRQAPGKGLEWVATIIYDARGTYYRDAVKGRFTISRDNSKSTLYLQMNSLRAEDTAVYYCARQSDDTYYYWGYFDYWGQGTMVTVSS VL: DIVMTQSPDSLAVSLGERATINCKSSQSLLFSGNQKNYLAWYQQKPGQSPKLLIYWASTRQSGVPDRFSGSGSGTDFTLTIRSLQAEDVAIYYCQQYYGSPYTFGQGTKLEIK",
    "kon": "14000 M⁻¹ s⁻¹"
  },
  {
    "binder": "huAb15v4 (antibody, V domains shown, Humanized, further engineered clone of chAb15, converted to IgG and expressed as a full-length antibody) VH: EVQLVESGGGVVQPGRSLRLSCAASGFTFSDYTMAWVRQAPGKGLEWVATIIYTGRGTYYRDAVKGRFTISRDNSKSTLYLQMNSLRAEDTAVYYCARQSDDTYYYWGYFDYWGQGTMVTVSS VL: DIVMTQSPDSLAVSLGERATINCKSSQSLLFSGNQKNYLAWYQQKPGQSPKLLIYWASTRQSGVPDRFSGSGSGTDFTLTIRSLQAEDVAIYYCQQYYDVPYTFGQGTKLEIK",
    "kon": "20000 M⁻¹ s⁻¹"
  }
]
